# experiment_description: Pharmacokinetic evaluation of compounds in mice
# Type: in vivo, CD-1 mice
# measurement_parameters: mouse, plasma; CD-1 male mice, IV, 1.28 mg/kg
quantity_measured: clearance

Data point: "C#Cc1c(F)ccc2cc(N)cc(-c3ccc4c(N5CC6CCC(C5)N6)nc(OC[C@@]56CCCN5C[C@H](F)C6)nc4c3F)c12" ; clearance = 77 mL/min/kg

====

# experimental_target: KRAS^G12D binding to c-Raf (Homo sapiens (Human), UniProt P01116, G12D)
# Sequence (P01116-2 other isoform, or with tags, fused parts or gaps G12D): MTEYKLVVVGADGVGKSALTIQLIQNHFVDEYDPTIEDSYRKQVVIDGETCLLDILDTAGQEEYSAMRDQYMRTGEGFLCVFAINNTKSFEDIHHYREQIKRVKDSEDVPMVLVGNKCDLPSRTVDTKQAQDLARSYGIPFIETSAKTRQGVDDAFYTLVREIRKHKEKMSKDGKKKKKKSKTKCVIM
# experiment_description: SOS1-mediated binding of KRAS^G12D to effector protein c-Raf (TR-FRET)
quantity_measured: IC50

Sample records with IC50:
molecule	experimental_target	quantity_measured	assay_result
C#Cc1c(F)ccc2cc(N)cc(-c3c(Cl)cc4c(N5CC6CCC(C5)N6)nc(OC[C@@]56CCCN5C[C@H](F)C6)nc4c3F)c12 (single isomer, unassigned) [Compound 016B]	KRAS^G12D binding to c-Raf (Homo sapiens (Human), UniProt P01116, G12D)	IC50	6.23 nM
C#Cc1c(F)ccc2cc(N)cc(-c3c(F)cc4c(N5CC6C=CC(C5)N6)nc(OC[C@@]56CCCN5C[C@H](F)C6)nc4c3F)c12	KRAS^G12D binding to c-Raf (Homo sapiens (Human), UniProt P01116, G12D)	IC50	22.5 nM

Now look at this entry.
Data point: "C#Cc1c(F)ccc2cc(N)cc(-c3ccc4c(N5CC6CCC(C5)N6)nc(OC[C@@]56CCCN5C[C@H](F)C6)nc4c3F)c12" ; IC50 = 12 nM
